tested on: rat spleen cells; assay: cells; assay type: cell-based; conditions: 24 h, read-out: Minimum effective concentration (interferon inducing activity)
Property: log10(minimal effective concentration) (log10 of the value in µM)
Reminder: these figures are log10 of reported minimal effective concentration, in µM before transformation.

| Molecule | log10(minimal effective concentration) |
| --- | --- |
| CCCCOc1nc(N)c2[nH]c(=O)n(CCCCNC(=O)Nc3cccc(CC(=O)OC)c3)c2n1 | -2.00 |
| CCCCOc1nc(N)c2[nH]c(=O)n(CCCCNS(=O)(=O)c3cccc(C(=O)O)c3)c2n1 [Comparison Example 8, reference compound] | -1.00 |
| CCCCOc1nc(N)c2[nH]c(=O)n(CCCCNC(=O)Nc3cccc(C(=O)OC)c3)c2n1 | -3.00 |
| CCCCOc1nc(N)c2[nH]c(=O)n(CCOc3ccccc3C(=O)OC)c2n1 | -3.00 |
| CCCCOc1nc(N)c2[nH]c(=O)n(CCOc3ccccc3CC(=O)O)c2n1 [Comparison Example 4, reference compound] | -1.00 |

Please state log10(minimal effective concentration) for every molecule in the list that follows.
1. CCCCOc1nc(N)c2[nH]c(=O)n(CCOc3cccc(C(=O)OC)c3)c2n1
2. CCCCOc1nc(N)c2[nH]c(=O)n(CCOc3cccc(CC(=O)O)c3)c2n1 [Comparison Example 2, reference compound]

Response:
1: -3.52; 2: -1.52

====

Provide the reported melting point of each item.

Could I get melting point for every one of these entries?
1. CCCCOc1nc(N)c2[nH]c(=O)n(CCCCN(CCCN3CCCC3=O)Cc3cccc(CC(=O)OC)c3)c2n1 [Example 2-33]
2. CCCCOc1nc(N)c2[nH]c(=O)n(CCCNCc3cccc(C(=O)OC)c3)c2n1 [Example 2-3]
3. CCCCOc1nc(N)c2[nH]c(=O)n(CCCCN(Cc3cccc(CC(=O)O)c3)CC(C)(C)CN(C)C)c2n1 [Example 2-32]
4. CCCCOc1nc(N)c2[nH]c(=O)n(CCCCNS(=O)(=O)c3ccc(CCC(=O)OC)cc3)c2n1 [Example 2-11]
5. CCCCOc1nc(N)c2[nH]c(=O)n(CCCCN(CCOC)S(=O)(=O)c3cccc(CC(=O)O)c3)c2n1 [Example 2-16]
6. CCCCOc1nc(N)c2[nH]c(=O)n(CCCCN(CCN3CCCC3)S(=O)(=O)c3cccc(CC(=O)O)c3)c2n1 [Example 2-14]
7. CCCCOc1nc(N)c2[nH]c(=O)n(CCCCN(CCOC)S(=O)(=O)c3cccc(CC(=O)OC)c3)c2n1 [Example 2-15]

Response:
1: 115 to 116 °C; 2: 214 to 218 °C; 3: 189 to 190 °C; 4: 150 to 152 °C; 5: 171 to 172 °C; 6: 192 to 193 °C; 7: 182 to 183 °C
